# targetUnderTest: hNTS2 receptor (Homo sapiens, UniProt O95665)
# Construct: membranes prepared from them
# Sequence (O95665 whole entry): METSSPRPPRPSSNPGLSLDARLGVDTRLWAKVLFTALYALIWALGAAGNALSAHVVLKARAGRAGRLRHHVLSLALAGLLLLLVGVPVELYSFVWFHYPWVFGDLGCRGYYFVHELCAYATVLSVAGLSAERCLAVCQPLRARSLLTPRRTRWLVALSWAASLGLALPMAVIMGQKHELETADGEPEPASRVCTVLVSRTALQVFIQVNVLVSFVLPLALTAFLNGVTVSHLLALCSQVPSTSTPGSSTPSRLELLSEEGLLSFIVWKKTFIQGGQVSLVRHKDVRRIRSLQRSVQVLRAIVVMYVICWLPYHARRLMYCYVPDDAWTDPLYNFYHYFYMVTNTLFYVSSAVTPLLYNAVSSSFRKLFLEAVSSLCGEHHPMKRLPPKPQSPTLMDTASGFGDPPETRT
# measurementNotes: Competitive radioligand binding assay on the hNTS2 receptor
# conditionSummary: ratio IC50 for NTS1 : IC50 for NTS2
Where a SMILES comes first, the peptide text is derived from it. Bridges are numbered along the chain shown (N, C = ends). [ ]: non-standard residue; d: D form. AllylGly = C=CC[C@H](N)C(=O)O; Pen = CC(C)(S)[C@H](N)C(=O)O; Nle = CCCC[C@H](N)C(=O)O
measuredAttribute: Selectivity

compound	targetUnderTest	Selectivity
CC(C)C[C@H](NC(=O)[C@H](Cc1ccc(O)cc1)NC(=O)[C@@H]1CSSC(C)(C)[C@H](N)C(=O)N[C@@H](CCCCN)C(=O)N[C@@H](CCCCN)C(=O)N1)C(=O)O [compound 154, c[PenKKC]YL] (H-[Pen]KKCYL-OH; disulfide 1-4)	hNTS2 receptor (Homo sapiens, UniProt O95665)	81
COc1ccc(C[C@H](NC(=O)[C@H](Cc2ccc(O)cc2)NC(=O)[C@@H]2CC=CC[C@H](N)C(=O)N[C@@H](CCCCN)C(=O)N[C@@H](CCCCN)C(=O)N2)C(=O)O)cc1 [compound 62, c[G(All)KKG(All)]YY(OMe)] (H-[AllylGly]KK[AllylGly]YY(Me)-OH; staple 1-4)	hNTS2 receptor (Homo sapiens, UniProt O95665)	>602
CC(C)C[C@H](NC(=O)[C@H](Cc1ccc(O)cc1)NC(=O)[C@@H]1CC=CC[C@H](N)C(=O)NCC(=O)N[C@@H](CCCCN)C(=O)N1)C(=O)O [compound 87, c[G(All)GKG(All)]YL] (H-[AllylGly]GK[AllylGly]YL-OH; staple 1-4)	hNTS2 receptor (Homo sapiens, UniProt O95665)	>194

Consider now this further compound.
Prompt line: Tell me the measured Selectivity of CCCC[C@H](NC(=O)[C@H](Cc1ccc(O)cc1)NC(=O)[C@@H]1CC=CC[C@H](N)C(=O)N[C@@H](CCCCN)C(=O)N[C@@H](CCCCN)C(=O)N1)C(=O)O [compound 28, c[G(All)KKG(All)]YNle] (H-[AllylGly]KK[AllylGly]Y[Nle]-OH; staple 1-4) , please.
Response line: >262

* * *

# targetUnderTest: hNTS2 receptor (Homo sapiens)
# Construct: membranes prepared from them
# measurementNotes: Competitive radioligand binding assay on the hNTS2 receptor
# conditionSummary: displacement of 125I-[Tyr3]-NT, membranes of 1321N1 cells expressing hNTS2; read-out: IC50 NTS2 (converted)
*1 amine or outer side, *2 acyl side, *3 side chain or, on linkers, in order; H or OH if unused. Where a SMILES comes first, the peptide text is derived from it. Bridges are numbered along the chain shown (N, C = ends). [ ]: non-standard residue; d: D form. ξ: configuration not given here. ξαMeNle(6-ylidene) = CC(CCCC=[*:3])(N[*:1])C(=O)[*:2]; Phe(4-Cl) = N[C@@H](Cc1ccc(Cl)cc1)C(=O)O; 2Nal = N[C@@H](Cc1ccc2ccccc2c1)C(=O)O; AllylGly = C=CC[C@H](N)C(=O)O
Below, each entry is listed with its recorded IC50.
// note: answer is a bare numeric in nM

Sample answers from the record:
compound	IC50 / nM
CC(C)C[C@H](NC(=O)[C@H](Cc1ccc(O)cc1)NC(=O)C1(C)CCCC=CCCCC(C)(N)C(=O)N[C@@H](CCCCN)C(=O)N[C@@H](CCCCN)C(=O)N1)C(=O)O (stereo partly shown) [compound 93] (H-[ξαMeNle(6-ylidene)]KK[ξαMeNle(6-ylidene)]YL-OH; staple 1-4)	34.4
CC(C)C[C@H](NC(=O)[C@H](Cc1ccc(O)cc1)NC(=O)C1(C)CC=CCCC[C@H](N)C(=O)N[C@@H](CCCCN)C(=O)N[C@@H](CCCCN)C(=O)N1)C(=O)O (single isomer, unassigned) [compound 92, c[G(All)KKG*(alpha-Me-(4-Pentenyl))]YL]	511
CC(C)C[C@H](NC(=O)[C@H](Cc1ccc(O)cc1)NC(=O)[C@@H]1CCCC[C@H](N)C(=O)N[C@@H](CCCCN)C(=O)N[C@@H](CCCCN)C(=O)N1)C(=O)O [compound 47, Dihydro-c[G(All)KKG(All)]YL]	94
CC(C)C[C@H](NC(=O)[C@H](Cc1ccccc1)NC(=O)[C@@H]1CC=CC[C@H](N)C(=O)N[C@@H](CCCCN)C(=O)N[C@@H](CCCCN)C(=O)N1)C(=O)O [compound 76, c[G(All)KKG(All)FL] (H-[AllylGly]KK[AllylGly]FL-OH; staple 1-4)	85.1
NCCCC[C@@H]1NC(=O)CCC=CC[C@@H](C(=O)N[C@@H](Cc2ccc(O)cc2)C(=O)N[C@@H](CC2CCCC2)C(=O)O)NC(=O)[C@H](CCCCN)NC1=O [compound 129, c[pK(pentenoyl)KG(All)]Y A(cyclopentyl)]	13.9

Prompt line: Tell me the measured IC50 of CC(C)C[C@H](NC(=O)[C@H](Cc1ccc2ccccc2c1)NC(=O)[C@@H]1CC=CC[C@H](N)C(=O)N[C@@H](CCCCN)C(=O)N[C@@H](CCCCN)C(=O)N1)C(=O)O [compound 112, c[G(All)KKG(All)]A(naphtyl)L] (H-[AllylGly]KK[AllylGly][2Nal]L-OH; staple 1-4) , please.
Response line: 83.6

Prompt line: Tell me the measured IC50 of CC(C)C[C@H](NC(=O)[C@H](Cc1ccc(Cl)cc1)NC(=O)[C@@H]1CC=CC[C@H](N)C(=O)N[C@@H](CCCCN)C(=O)N[C@@H](CCCCN)C(=O)N1)C(=O)O [compound 114, c[G(All)KKG(All)]F(4-chloro)L] (H-[AllylGly]KK[AllylGly][Phe(4-Cl)]L-OH; staple 1-4) , please.
Response line: 40.6

* * *

# targetUnderTest: hNTS1 receptor (Homo sapiens)
# Construct: membranes prepared from them
# Sequence (P30989 whole entry): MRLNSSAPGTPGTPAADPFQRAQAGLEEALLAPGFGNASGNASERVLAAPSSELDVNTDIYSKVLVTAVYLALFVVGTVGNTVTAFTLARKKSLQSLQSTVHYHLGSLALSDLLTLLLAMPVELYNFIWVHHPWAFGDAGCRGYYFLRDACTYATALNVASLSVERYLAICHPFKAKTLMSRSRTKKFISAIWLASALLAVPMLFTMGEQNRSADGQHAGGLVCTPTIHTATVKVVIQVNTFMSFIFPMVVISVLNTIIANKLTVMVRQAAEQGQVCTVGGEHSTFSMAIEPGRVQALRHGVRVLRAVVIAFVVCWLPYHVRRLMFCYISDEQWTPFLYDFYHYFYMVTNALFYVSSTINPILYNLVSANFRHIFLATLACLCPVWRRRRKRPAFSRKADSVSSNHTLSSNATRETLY
# measurementNotes: Competitive radioligand binding assay on the hNTS1 receptor
# conditionSummary: IC50 NTS1, displacement of 125I-[Tyr3]-NT, membranes of CHO-K1 cells expressing hNTS1
pIC50: −log10 of the molar value. Where a SMILES comes first, the peptide text is derived from it. Bridges are numbered along the chain shown (N, C = ends). [ ]: non-standard residue; d: D form. Bpa = N[C@@H](Cc1ccc(C(=O)c2ccccc2)cc1)C(=O)O; Ala(cPent) = N[C@@H](CC1CCCC1)C(=O)O; AllylGly = C=CC[C@H](N)C(=O)O
Below, each entry is listed with its recorded pIC50.

compound	reportedResult
NCCCC[C@@H]1NC(=O)[C@H](CCCCN)NC(=O)[C@@H](N)CC=CC[C@@H](C(=O)N[C@@H](Cc2ccc(O)cc2)C(=O)N[C@@H](CC2CCCC2)C(=O)O)NC1=O [compound 67, c[G(All)KKG(All)]YA(cyclopentyl)] (H-[AllylGly]KK[AllylGly]Y[Ala(cPent)]-OH; staple 1-4)	< 4.00

Consider now this further compound.
Prompt line: Tell me the measured pIC50 of CC(C)C[C@H](NC(=O)[C@H](Cc1ccc(C(=O)c2ccccc2)cc1)NC(=O)[C@@H]1CC=CC[C@H](N)C(=O)N[C@@H](CCCCN)C(=O)N[C@@H](CCCCN)C(=O)N1)C(=O)O [compound 160, c[G(All)KKG(All)]F (benzoyl)L] (H-[AllylGly]KK[AllylGly][Bpa]L-OH; staple 1-4) , please.
Response line: < 4.00

* * *

Below, each entry is listed with its recorded log10 of IC50.
# targetUnderTest: hNTS2 receptor (Homo sapiens, UniProt O95665)
# Construct: membranes prepared from them
# measurementNotes: Competitive radioligand binding assay on the hNTS2 receptor
# conditionSummary: displacement of 125I-[Tyr3]-NT, membranes of 1321N1 cells expressing hNTS2; read-out: IC50 NTS2 (converted)
Where a SMILES comes first, the peptide text is derived from it. Bridges are numbered along the chain shown (N, C = ends). [ ]: non-standard residue; d: D form. dAllylGly = C=CC[C@@H](N)C(=O)O; AllylGly = C=CC[C@H](N)C(=O)O; Cba = N[C@@H](CC1CCC1)C(=O)O; hLys = NCCCCC[C@H](N)C(=O)O; Dab = NCC[C@H](N)C(=O)O
Values below are the log10 of the recorded IC50, with nM as the unit.

Sample answers from the record:
compound	targetUnderTest	log10 of IC50
CC1(C(=O)N[C@@H](Cc2ccc(Br)cc2)C(=O)N[C@@H](CC2CCCC2)C(=O)O)CCCC=CCCC(=O)N[C@@H](CCCCN)C(=O)N[C@@H](CCCCN)C(=O)N1 (stereo partly drawn) [compound 137]	hNTS2 receptor (Homo sapiens, UniProt O95665)	0.98
CC(C)[C@H](NC(=O)[C@H](Cc1ccc(O)cc1)NC(=O)[C@@H]1CC=CC[C@H](N)C(=O)N[C@@H](CCCCN)C(=O)N[C@@H](CCCCN)C(=O)N1)C(=O)O [compound 33, c[G(All)KKG(All)]YV] (H-[AllylGly]KK[AllylGly]YV-OH; staple 1-4)	hNTS2 receptor (Homo sapiens, UniProt O95665)	4.90
CC(C)C[C@H](NC(=O)[C@H](CC1CCC1)NC(=O)[C@@H]1CC=CC[C@H](N)C(=O)N[C@@H](CCCCN)C(=O)N[C@@H](CCCCN)C(=O)N1)C(=O)O [compound 143, c[G(All)KKG(All)]A (cyclobutyl)L] (H-[AllylGly]KK[AllylGly][Cba]L-OH; staple 1-4)	hNTS2 receptor (Homo sapiens, UniProt O95665)	2.44
CC(C)C[C@H](NC(=O)[C@H](Cc1ccc(O)cc1)NC(=O)[C@@H]1CCNC(=O)C[C@H](N)C(=O)N[C@@H](CCCCN)C(=O)N[C@@H](CCCCN)C(=O)N1)C(=O)O [compound 105, c[DKKDab]YL] (H-DKK[Dab]YL-OH; lactam 1-4)	hNTS2 receptor (Homo sapiens, UniProt O95665)	3.16
CC(C)C[C@H](NC(=O)[C@@H](Cc1c[nH]c2ccccc12)NC(=O)[C@@H]1CC=CC[C@H](N)C(=O)N[C@@H](CCCCN)C(=O)N[C@@H](CCCCN)C(=O)N1)C(=O)O [compound 43, c[G(All)KKG(All)]W*L] (H-[AllylGly]KK[AllylGly][dW]L-OH; staple 1-4)	hNTS2 receptor (Homo sapiens, UniProt O95665)	2.99
CC(C)C[C@H](NC(=O)[C@H](Cc1ccc(O)cc1)NC(=O)C1(C)CCCC=CCCC(=O)N[C@@H](CCCCN)C(=O)N[C@@H](CCCCN)C(=O)N1)C(=O)O (stereo partly drawn) [compound 132]	hNTS2 receptor (Homo sapiens, UniProt O95665)	2.13

Prompt line: Tell me the measured log10 of IC50 of CC(C)C[C@H](NC(=O)[C@H](Cc1ccc(O)cc1)NC(=O)[C@@H]1CC=CC[C@H](N)C(=O)N[C@H](Cc2c[nH]cn2)C(=O)N[C@@H](CCCCN)C(=O)N1)C(=O)O [compound 84, c[G(All)H*KG(All)]YL] (H-[AllylGly][dH]K[AllylGly]YL-OH; staple 1-4) , please.
Response line: 2.81

Prompt line: Tell me the measured log10 of IC50 of CC(C)C[C@H](NC(=O)[C@H](Cc1ccc(O)cc1)NC(=O)[C@H]1CC=CC[C@H](N)C(=O)N[C@@H](CCCCN)C(=O)N[C@@H](CCCCN)C(=O)N1)C(=O)O [compound 40, c[G(All)KKG*(All)]YL] (H-[AllylGly]KK[dAllylGly]YL-OH; staple 1-4) , please.
Response line: 3.08

Prompt line: Tell me the measured log10 of IC50 of CC(C)C[C@H](NC(=O)[C@H](Cc1ccc(O)cc1)NC(=O)[C@@H]1CC=CC[C@H](N)C(=O)N[C@H](CCCCN)C(=O)N[C@@H](CCCCN)C(=O)N1)C(=O)O [compound 82, c[G(All)K*KG(All)]YL] (H-[AllylGly][dK]K[AllylGly]YL-OH; staple 1-4) , please.
Response line: 2.79

Prompt line: Tell me the measured log10 of IC50 of CC(C)C[C@H](NC(=O)[C@H](Cc1ccc(O)cc1)NC(=O)[C@@H]1CC=CC[C@H](N)C(=O)N[C@@H](CCCCCN)C(=O)N[C@@H](CCCCN)C(=O)N1)C(=O)O [compound 150, c[G(All)homolysineKG(All)]YL] (H-[AllylGly][hLys]K[AllylGly]YL-OH; staple 1-4) , please.
Response line: 2.27

// data source = patent US12358948B2
